Biological target: T1, LILRB3
T1 construct: also called LILRB3 reporter cells; not shown: transmembrane/intracellular domains of PILRb, the display part of the chimeric reporter receptor
Experiment: flow cytometry, reporter cells
Record form. Attribute: MFI. Fill in for each entry.
Write no unit; give the number alone.

I'd like to know its MFI. The binder in question is B2-15 (antibody, V domains shown, also called B-15; B2-15_HC) VH: EVQLVQSGAEVKKSGASVKVSCKSSGYTFTNYGISWVRQAPGQGLEWMGWISGDAGDTKFAQKFQGRVTMTTDTSTTTTYMELRSLRSDDTAVYYCARDGEYIPMFRGFDNYYGLDVWGQGTLVSVSS VL: QSVLTQPPSASATPGQRVTISCSGRNANIGSNPVNWYQQLPGTAPRLVMYSNNQRPSGVPDRFSGSKSGTSASLAISGLQSEDEADYYCEGWDDSLNGYVFGTGTKVTVL
9

Requested field: MFI. Item: B2-17 (antibody, V domains shown, also called B2-17_HC; B2-17_LC) VH: EVQLLDSGPRLLKPSETLSLTCGVSGVSTSSTHWWSWVRQTPGKGLEWIGEILHNGNTNSNPSLKSRVSMSIDKSRNQFSLQLKSMTAADTAVYYCASASPNWGASGAFDAWAQGTMVTVSS VL: QSVLTQPPSASATPGQRVTISCSGSSSNIGSNPVNWYQQVPGMAPELVMYSDNQRPSGVPDRFSGSNSGTSASLAISGLQSEDEADYYCSTWDDSLNGLVFGTGTKVTVL
10

Any idea what MFI was measured for B2-16 (antibody, V domains shown, also called B2-16_HC; B2-16_LC) VH: QVQLVQSGAEVKKPGSSVKVSCKASGGTFSSYAISWVRQAPGQGLEWMGGIIPIFGTANYAQKFQGRVTITADESTSTAYMELSSLRSEDTAVYYCASGIIPDNPYGMDVWGQGTMVSVSS VL: DIVMTQSPLSLPVTLGQPASISCTSSQSLVYSDGNTYLNWFHQRPGQSPRRLFYKVSNRASGVPDRFSGSGSGTDFTLKISRVEAEDLGVYYCMQGTHWPVTFGQGTRLEIK ?
10

Suppose we examine the binder B2-7 (antibody, V domains shown, also called B2-7_HC; B2-7_LC) VH: EVQLVESGGGVVQPGRSLRLSCAASGFTISSYGMHWVRQAPGKGLEWVAVISYDGSNKYYADSVKGRFTISRDNSKNTLYLQMNSLRVEDTAVYYCAKDLLLRYFDWSPKYYYNGMDVWGQGTMVTVSS VL: QSVLTQPPSVSVAPGKTARITCGGNNIGSKSVHWYQQKPGQAPVLVVYDDSDRPSGIPERFSGSNSGNTATLTISRVEAGDEADYYCQVWDSSSDHPGVFGTGTKVTVL ; what MFI value has been reported?
11
